TARGET OR SYSTEM: HLA-A*33:01
TEST PROTOCOL: IEDB peptide-MHC binding, purified MHC/competitive/radioactivity; filed as Kd, often an IC50 or EC50 that approximates it; bounds were set here for any values at or beyond the usual limits of such assays
TEST CONDITIONS: source organism: Hepatitis B virus
MEASUREMENT LABEL: Kd (µM)
One number for each entry, in µM.

The cases that follow already have their Kd on record.
AVNHYFKTR
0.05
IMPARFYPK
0.059
RLADEGLNR
0.397
CALPFTSAR
0.04

The record that follows has no Kd shown yet.
Challenge: Query: Kd; subject: HLYPVARQR
Response given: 0.33
